# Test System: UniProtKB P32300
# Sequence (P32300 whole entry): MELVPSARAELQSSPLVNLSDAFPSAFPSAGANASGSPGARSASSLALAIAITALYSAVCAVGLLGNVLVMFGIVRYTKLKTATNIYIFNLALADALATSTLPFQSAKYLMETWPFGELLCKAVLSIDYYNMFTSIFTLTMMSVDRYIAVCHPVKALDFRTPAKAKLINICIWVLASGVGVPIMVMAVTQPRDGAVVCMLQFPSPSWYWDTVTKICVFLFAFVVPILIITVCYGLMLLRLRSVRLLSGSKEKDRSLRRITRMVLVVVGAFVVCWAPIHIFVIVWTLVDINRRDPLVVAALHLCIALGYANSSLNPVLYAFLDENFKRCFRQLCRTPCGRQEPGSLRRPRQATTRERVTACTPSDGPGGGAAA
Ki values for the compounds below.
Measurement Type: Ki (nM)

# Compound, Test System, Quantitative Result
rows = [
    ("N[C@@H]1CC[C@@]2(O)[C@H]3Cc4ccc(O)c5c4[C@@]2(CCN3CC2CC2)[C@H]1O5", "UniProtKB P32300", 2.3),
    ("Oc1ccc2c3c1O[C@H]1[C@H](O)CC[C@@]4(O)[C@@H](C2)N(CC2CC2)CC[C@]314 [6β-Naltrexol, 6β-naltrexol]", "UniProtKB P32300", 2.1),
    ("Oc1ccc2c3c1O[C@H]1[C@H](O)CC[C@@]4(O)[C@@H](C2)N(CC2CC2)CC[C@]314 [6α-Naltrexol, 6α-naltrexol]", "UniProtKB P32300", 2.4),
    ("C=CCN1CC[C@]23c4c5ccc(O)c4O[C@H]2[C@@H](O)CC[C@@]3(O)[C@H]1C5", "UniProtKB P32300", 2.1),
    ("C=CCN1CC[C@]23c4c5ccc(O)c4O[C@H]2[C@H](O)CC[C@@]3(O)[C@H]1C5", "UniProtKB P32300", 2.3),
]
